system: HL-60(TB) leukemia; assay: NCI-60 one-dose screen, 48 h; details: 10 µM unless noted
Compounds without any hit were thinned out: in the full panel of roughly 83,000, 20% have a hit. Active and inactive are the calls of the source. Rule for the calls: active = growth percent below 10; inactive = the rest.
Choose one outcome from this list and give only that: TRUE for active, FALSE for inactive

Test call for this compound, please: COc1ccc2nc3cc(Cl)ccc3c(NCCNc3c4ccc(Cl)cc4nc4ccc(OC)cc34)c2c1
TRUE

# repeat for CCC(c1ccccc1)c1noc(CCN(CC)CC)n1 (stereo not given)
FALSE

Subsequent entry: CN1CCN(C(=O)[C@]23CCC(C)(C)C[C@H]2C2=CC[C@@H]4[C@@]5(C)C/C(=C/c6cccnc6)C(=O)C(C)(C)[C@@H]5CC[C@@]4(C)[C@]2(C)CC3)CC1
TRUE

----------
growth values by entry
Test system: SK-MEL-28 melanoma
Test: NCI-60 one-dose screen, 48 h (100 = growth as untreated, 0 = no growth, -100 = all killed)
Settings: 10 µM unless noted
Protocol: Growth inhibition of the SK-MEL-28 human tumor cell line is measured as a screen for anti-cancer activity. Cells are grown in 96 well plates and exposed to the test compound for 48 hours. Compounds are tested at a single concentration, which is 10^-5 M for most compounds. The reported endpoint is percent growth (GI% or GIPRCNT), where numbers from 0 - 100% represent growth inhibition, and numbers from -100% - 0 represent cell death. For example, a value of 40 represents 60% growth inhibition. […]
Compounds without any hit were thinned out: in the full panel of roughly 83,000, 20% have a hit.
Report as a plain number; the unit % is understood.

What growth value was documented for this molecule, Cc1ccccc1O ?
111

Do the same for CNC(=O)Oc1cccc(OC)c1 please
111

Now give it for COc1ccc(NP2(=O)OCC(C)(N)CO2)cc1 (configuration not stated) too.
114

O=[N+]([O-])c1cc([N+](=O)[O-])c(Cl)c(Cl)c1Cl ?
65.9

Also, COC(C)(C)CCC[C@H](C)C/C=C/C(C)=C/C(=O)OC(C)C please.
101

Param item: CC(C)(NC(=O)c1nn(CCCCCF)c2ccccc12)c1ccccc1
111

And for Oc1ccc2c3c1O[C@H]1c4[nH]c5ccccc5c4C[C@@]4(O)C(C2)N(CC2CC2)CC[C@]314 ?
105

Also check Oc1ccc(Br)cc1CN1CCN(Cc2ccc(Cl)cc2)CC1
88.2

Could you do the same for FC(F)=C(F)c1ccccc1 , please?
102

Also, c1cnc2c(c1)ccc1ncccc12 please.
205

Next entry: CCN(CC)CCOc1c(C(C)C)cccc1C(C)C
92.1

Please give the result for CC(=O)O[C@H]1CCC2C3CCC4=C/C(=N/O)CCC4(C)C3CCC21C (some centres not stated) too.
103

----------
system: HL-60(TB) leukemia; test: NCI-60 one-dose screen, 48 h; conditions: 10 µM unless noted
This is part of a sample that, as a whole, favours compounds with a hit. Of some 83,000 tested, about 20% had one in any assay. The source made the active and inactive calls. Rule for the calls: active = growth percent below 10; inactive = the rest.
Answer with one of the outcomes given here: 1 (yes) (active), 0 (no) (inactive)

// known answers, use as guide
C=C1C(=O)O[C@H]2[C@H]1CC/C(COC(=O)C(=O)c1c[nH]c3ccccc13)=C\CC[C@@]1(C)O[C@@H]21 = 1 (yes)
CN(C)CCN(C)CC(C)(C)C(=O)/C=C/c1ccc(Cl)cc1 = 1 (yes)
NC1=CC(=O)C(=O)c2cccnc21 = 0 (no)
COc1cc(-c2cc(C(=O)N3CCN(C(=O)c4ccccc4NCc4cccs4)CC3)nc3cc(-c4ccccc4)nn23)cc(OC)c1OC = 0 (no)

Consider the record given below.
Outcome? COc1ccc(-c2nn(-c3cccc(Cl)c3)cc2-c2cc(-c3cccs3)[nH]c(=S)n2)cc1
0 (no)

Data provenance is PubChem BioAssay (NCI).
